Ki for Prothrombin (Homo sapiens, UniProt P00734) - collated from the literature.
// NB: equality with 10 nM counts as N; only Ki strictly below is Y

[
  {
    "compound": "Cc1ccc(C(=O)Nc2ccc(NC(=N)N)cc2)c(O)c1",
    "classification": "N"
  },
  {
    "compound": "Cc1cnc(NCCc2ccccc2)c(=O)n1CC(=O)NCc1ccc(C(=N)NO[Si](C)(C)C(C)(C)C)s1",
    "classification": "N"
  },
  {
    "compound": "NCCCC[C@H](NC(=O)[C@@H]1CCCN1C(=O)CCc1cccc(C(F)(F)F)c1)B(O)O",
    "classification": "Y"
  },
  {
    "compound": "COCCC1(C(=O)Nc2ccc(-c3ccccc3S(N)(=O)=O)cc2)CC(c2cccc(C(=N)N)c2)=NO1 (centres undefined)",
    "classification": "N"
  },
  {
    "compound": "COc1ccc(S(=O)(=O)N=C(N)N)cc1N",
    "classification": "N"
  },
  {
    "compound": "N=C(N)c1ccc(OCc2ccc(COc3ccc(C(=N)N)cc3)cc2)cc1",
    "classification": "N"
  },
  {
    "compound": "Nc1noc2ccc(-n3nc(C(F)(F)F)c4c3C(=O)N(c3ccc(-c5ccccc5CN5CC[C@@H](O)C5)cc3)CN4)cc12",
    "classification": "N"
  },
  {
    "compound": "COc1ccc(-n2nc(C(F)(F)F)cc2C(=O)Nc2ccc(-c3ccccc3S(N)(=O)=O)cc2)cc1",
    "classification": "N"
  },
  {
    "compound": "O=C(Cn1c(Cl)cnc(NCC(F)(F)c2cccc[n+]2[O-])c1=O)NCc1ccccc1-n1cnnn1",
    "classification": "Y"
  }
]
